Target: T1, mouse CD47 (mouse, UniProt Q61735 19-140, limits assumed)
T1 construct: also called mouse CD47 protein
T1 sequence (looked up): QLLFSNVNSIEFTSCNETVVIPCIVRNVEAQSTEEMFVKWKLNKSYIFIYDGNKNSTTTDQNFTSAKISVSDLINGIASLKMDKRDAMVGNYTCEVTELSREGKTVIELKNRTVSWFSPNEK
Assay: SPR, 25 C, 1:1 Langmuir fit
Exam item: assign 1 (yes) to entries whose Kd is below 30 nM and 0 (no) to entries at or above 30 nM. Note that a value of exactly 30 nM receives 0 (no).

The examples below pair each entry with its known result.
| binder | cat |
| --- | --- |
| SIRP-α D1 variant polypeptide of SEQ ID NO: 206 (receptor) EEELQIIQPDKSVLVAAGETATLRCTITSLRPVGPIQWFRGAGPGRELIYNQRDGPFPRVTTVSDTTKRNNMDFSIRIGAITPADAGTYYCVKFRKGIPDDVEFKSGAGTELSVRAKPS | 1 (yes) |
| SIRP-α D1 variant polypeptide of SEQ ID NO: 204 (receptor) EEELQIIQPDKSVLVAAGETATLRCTITSLRPVGPIQWFRGAGPGRELIYNQRDGPFPRVTTVSDTTKRNNMDFSIRIGAITPADAGTYYCVKFRKGSPDDVEFKSGAGTELSVRAKPS | 1 (yes) |
| SIRP-α D1 variant polypeptide of SEQ ID NO: 209 (receptor) EEELQIIQPDKSVLVAAGETATLRCTITSLYPVGPIQWFRGAGPGRELIYNQRDGPFPRVTTVSDTTKRNNMDFSIRIGAITPADAGTYYCVKFRKGIPDDVEFKSGAGTELSVRAKPS | 1 (yes) |

Item SIRP-α D1 variant fused to Fc variant, SEQ ID NO: 100 (Fc fusion) EEELQVIQPDKSVLVAAGETATLRCTATSLFPVGPIQWFRGAGPGRELIYNQREGPFPRVTTVSDLTKRNNMDFSIRIGAITPADAGTYYCVKFRKGSPDDVEFKSGAGTELSVRAKPSDKTHTCPPCPAPEAAGAPSVFLFPPKPKDTLMISRTPEVTCVVVDVSHEDPEVKFNWYVDGVEVHNAKTKPREEQYASTYRVVSVLTVLHQDWLNGKEYKCKVSNKALPAPIEKTISKAKGQPREPQVYTLPPSREEMTKNQVSLTCLVKGFYPSDIAVEWESNGQPENNYKTTPPVLDSDGSFFLYSKLTVDKSRWQQGNVFSCSVMHEALHNHYTQKSLSLSPGK : Kd beneath 30 nM, strictly?
0 (no)

Confirm or reject: Kd of SIRP-α D1 variant fused to Fc variant IgG1 L234A, L235A, G237A, N297A, SEQ ID NO: 96 (Fc fusion) EEELQIIQPDKSVLVAAGETATLRCTITSLFPVGPIQWFRGAGPGRVLIYNQRQGPFPRVTTVSDTTKRNNMDFSIRIGNITPADAGTYYCIKFRKGSPDDVEFKSGAGTELSVRAKPSDKTHTCPPCPAPEAAGAPSVFLFPPKPKDTLMISRTPEVTCVVVDVSHEDPEVKFNWYVDGVEVHNAKTKPREEQYASTYRVVSVLTVLHQDWLNGKEYKCKVSNKALPAPIEKTISKAKGQPREPQVYTLPPSREEMTKNQVSLTCLVKGFYPSDIAVEWESNGQPENNYKTTPPVLDSDGSFFLYSKLTVDKSRWQQGNVFSCSVMHEALHNHYTQKSLSLSPGK lies strictly below 30 nM
0 (no)

For SIRP-α D1 variant polypeptide of SEQ ID NO: 210 (receptor) EEELQIIQPDKSVLVAAGETATLRCTITSLFPVGPIQWFRGAGPGRELIYNQRDGPFPRVTTVSDTTKRNNMDFSIRIGAITPADAGTYYCVKFRKGIPDDVEFKSGAGTELSVRAKPS , is the recorded Kd below the cut-off of 30 nM?
1 (yes)

Is it true that Kd reported for SIRP-α D1 variant polypeptide of SEQ ID NO: 86 (receptor, engineered SIRP-α D1 domain) EEELQIIQPDKSVLVAAGETATLRCTITSLFPVGPIQWFRGAGPGRVLIYNQRQGPFPRVTTVSDTTKRNNMDFSIRIGNITPADAGTYYCIKFRKGSPDDVEFKSGAGTELSVRAKPS is less than 30 nM?
0 (no)

Measured values drawn from patent US20200239543A1 for this set.
